The reported numbers originate from patent US7329410.

Catalogue of Binding Affinity to Mouse MHC Class I (percent increase of D^b or K^b on RMA-S cells) values
biological target: Mouse MHC Class I (mouse B6 class I antigens; D^b or K^b molecules on the surface of RMA-S cells) (mouse); test: RMA-S cells incubated with peptide 25 ug/ml, stained with FITC anti-D^b or anti-K^b, flow cytometry; increase in MFI over medium alone
Please provide the amount together with its unit, number first.

| binder | readout-value |
| --- | --- |
| QMTSQLECM [WT1 peptide p228-236 …] | 1.2% |
| GCNKRYFKL [WT1 peptide p329-337 …] | 1.2% |

(Q) Item CMTWNQMNL [WT1 peptide p235-243 …] has what recorded Binding Affinity to Mouse MHC Class I (percent increase of D^b or K^b on RMA-S cells)?
(A) 33.6%
